Below, each entry is listed alongside its reported IC50.
# Test system: P-selectin
# assay method text: P-Selectin Adhesion Receptor Binding (cell-free ELISA, inhibition of P-selectin binding to immobilized sulfatides)
# Procedure: P-selectin (GMP140, granule membrane protein-140, PADGEM, or CD62) is a calcium-dependent transmembrane protein found in alpha granules of endothelial cells and platelets. […] 0.1 ml of sulfatide (SIGMA) at 1 μg/ml in MeOH was added to 48 wells of a 96-well ELISA plate (ProBind, Falcon) and allowed to dry overnight at room temperature. […] Reactions were stopped by the addition of 3N sulfuric acid and the absorbance read on an ELISA reader at dual wavelengths 450 and 630 nm. […]
Hi! Could you send only the number? It should be in nM, unit omitted.

The examples below pair each entry with its known result.
compound	quantity unit	IC50
CCCCCCCCCCCCC/C=C/[C@@H](OC(=O)c1ccccc1)[C@H](CO[C@H]1O[C@H](COCC(=O)O)[C@H](OCC(=O)O)[C@H](O)[C@H]1OC(=O)c1ccccc1)NC(=O)CCCCCCCCCCCCCCC [Example 14]	nM	700
CCCCCCCCCCCCC/C=C/[C@@H](OC(=O)c1ccccc1)[C@H](CO[C@@H]1O[C@H](COCC(=O)O)[C@H](OCC(=O)O)[C@H](OC(=O)c2ccccc2)[C@H]1OC(=O)c1ccccc1)NC(=O)CCCCCCCCCCCCCCC [Example 16]	nM	3500

Problem: Value lookup for IC50; key = CCCCCCCCCCCCC/C=C/[C@@H](OC(=O)c1ccccc1)[C@H](CO[C@H]1O[C@H](COCC(=O)O)[C@H](OCC(=O)O)[C@H](OC(=O)c2ccccc2)[C@H]1OC(=O)c1ccccc1)NC(=O)CCCCCCCCCCCCCCC [Example 2]
Solution: 920
